The measurements presented in this section are drawn from patent US20120083522A1.

- Test Name: Tolerability in Sprague-Dawley rats: kidney function (Example 19)
- Format: in vivo
- Experimental Context: Sprague Dawley rats, before antisense oligonucleotide treatment
Experimental Endpoint: urine protein/creatinine ratio, Before

[
  {
    "Substance": "417002 (antisense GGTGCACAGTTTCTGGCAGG; 2-13-5 gapmer, wing sugar chemistry not given here, further chemistry not given here) [compound 417002]",
    "urine protein/creatinine ratio, Before": 1.0
  },
  {
    "Substance": "416925 (antisense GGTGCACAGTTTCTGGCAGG; 3-14-3 chimeric gapmer, wing sugar chemistry not given here, further chemistry not given here) [compound 416925]",
    "urine protein/creatinine ratio, Before": 1.0
  }
]

Alright, here's another substance for you.
input: Which urine protein/creatinine ratio, Before value is on record for 416826 (antisense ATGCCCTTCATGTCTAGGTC; 5-10-5 gapmer, wing sugar chemistry not given here, further chemistry not given here) [compound 416826] ?
output: 1.0
